Attribute: melting point

structure: COC(=O)CC[C@H](NC(=O)c1ccc(C#Cc2cnc3nc(NC(=O)C(C)(C)C)nc(O)c3c2)s1)C(=O)OC
melting point: 228 to 230 °C
//
structure: N#CCc1ccc(N)c2[nH]ncc12
melting point: 164 to 165 °C
//
structure: CNC(=O)c1ccccc1Nc1nc(Nc2cccc3c2N(C)CCN(C)C3=O)ncc1Cl
melting point: 243 to 244 °C
//
structure: CCCCCC(=O)n1c(=O)n(-c2ccc(OC)cc2)c(=O)n1C(=O)CCCCC
melting point: 88 to 90 °C
//
structure: Cc1ccccc1NS(=O)(=O)c1cc(S(=O)(=O)Nc2ccccc2C)c2ccccc2c1O
melting point: 220 to 222 °C
